# assayed.system: proMMP13(1-268) (SEQ ID NO:7) (Homo sapiens, UniProt P45452)
# protocol.notes: ThermoFluor binding assay with proMMP13(1-268)
# cond: pH 7.0
measurement.kind: pKd
Reminder that pKd means the negative base-10 logarithm of the concentration expressed in mol/L.

Take a look at these entries with their results.
COc1cc(C)c(C(N)=O)cc1Nc1nc(-c2sc(C)nc2C)cs1 [Example 36] | 4.96
Cc1nc(N2CCN(C)CC2)sc1-c1csc(Nc2cc(C(N)=O)ccc2OC(C)C)n1 [Example 90] | 6.17

// next entry
stdin: Can you look up the measured pKd of Cc1nc(C)c(-c2csc(Nc3cc(C(N)=O)ccc3OC3CCCC3)n2)s1 [Example 15] for me?
stdout: 4.89

----------
# assayed.system: proMMP9(67-444;ΔFnII) (SEQ ID NO:5) (Homo sapiens, UniProt P14780, DEL216-390)
# Construct: start methionine (N)
# Sequence (P14780 with tags, fused parts or gaps DEL216-390): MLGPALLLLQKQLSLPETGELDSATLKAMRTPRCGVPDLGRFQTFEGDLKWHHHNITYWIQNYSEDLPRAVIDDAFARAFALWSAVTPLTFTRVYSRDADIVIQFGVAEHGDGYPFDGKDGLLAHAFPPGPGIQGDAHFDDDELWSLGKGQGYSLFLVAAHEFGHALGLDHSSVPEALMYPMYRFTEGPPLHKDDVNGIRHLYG
# protocol.notes: ThermoFluor binding assay with proMMP9(67-444;ΔFnII)
# cond: pH 7.0
pKd: −log10 of the molar value.
Tag: Condition met if measured pKd is not below 6, Condition not met if it is.

Cc1nc(C)c(-c2csc(Nc3cc(C(N)=O)ccc3OCC(C)C)n2)s1 | Condition not met
COc1ccc(S(C)(=O)=O)cc1Nc1nc(-c2sc(NC(C)=O)nc2C)cs1 | Condition met
CCS(=O)(=O)c1ccc(OC)c(Nc2nc(-c3sc(N)nc3C)cs2)c1 | Condition not met

stdin: Entry COc1ncccc1Nc1nc(-c2sc(NC(C)=O)nc2C)cs1 : is its pKd no less than 6?
stdout: Condition not met

stdin: Entry COc1ccc(S(C)(=O)=O)cc1Nc1nc(-c2sc(N)nc2C)cs1 : is its pKd no less than 6?
stdout: Condition met

stdin: Entry Cc1nc(S(C)(=O)=O)sc1-c1csc(Nc2cc(C(N)=O)ccc2OC(C)C)n1 : is its pKd no less than 6?
stdout: Condition not met

stdin: Entry CCC(C)Oc1ccc(C(N)=O)cc1Nc1nc(-c2sc(C)nc2C)cs1 (racemic) : is its pKd no less than 6?
stdout: Condition not met

----------
# assayed.system: proMMP9(20-445;ΔFnII) (SEQ ID NO:6) (Homo sapiens, UniProt P14780, DEL216-390)
# Construct: start methionine (N)
# Sequence (P14780 with tags, fused parts or gaps DEL216-390): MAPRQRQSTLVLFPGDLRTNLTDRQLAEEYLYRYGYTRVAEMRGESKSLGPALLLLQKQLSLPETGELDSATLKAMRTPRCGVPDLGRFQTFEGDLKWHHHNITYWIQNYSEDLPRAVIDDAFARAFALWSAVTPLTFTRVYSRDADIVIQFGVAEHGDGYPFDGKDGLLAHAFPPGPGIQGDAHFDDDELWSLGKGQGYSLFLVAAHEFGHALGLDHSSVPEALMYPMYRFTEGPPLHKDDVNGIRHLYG
# protocol.notes: ThermoFluor binding assay with proMMP9(20-445;ΔFnII)
# cond: pH 7.0
Where a name gives a salt, the structure may show the parent alone.
measurement.kind: pKd
Reminder that pKd means the negative base-10 logarithm of the concentration expressed in mol/L.

COc1ccc(C(=O)NCCN2CCCCC2)cc1Nc1nc(-c2sc(NC(C)=O)nc2C)cs1 | 4.72
CCOC(=O)c1nc(C)c(-c2csc(Nc3cc(C(N)=O)ccc3OC(C)C)n2)s1 | 6.57
Cc1nc(C)c(-c2nc(Nc3cc(S(N)(=O)=O)ccc3OC(C)C)sc2C)s1 | 5.24
CCOc1ccc(C(N)=O)cc1Nc1nc(-c2sc(C(=O)N3CCCN(C(C)C)CC3)nc2C)cs1 | 5.57

stdin: Can you look up the measured pKd of COC(=O)c1ccc(OC)c(Nc2nc(-c3sc(N)nc3C)cs2)c1 [Example 86, TFA] for me?
stdout: 5.92

stdin: Can you look up the measured pKd of CCOc1ccc(C(N)=O)cc1Nc1nc(-c2sc(C(=O)N3CCCN(C)CC3)nc2C)cs1 for me?
stdout: 5.48

stdin: Can you look up the measured pKd of CCOc1ccc(S(N)(=O)=O)cc1Nc1nc(-c2sc(C)nc2C)cs1 for me?
stdout: 6.60

stdin: Can you look up the measured pKd of Cc1nc(N2CCN(C)CC2)sc1-c1csc(Nc2cc(S(N)(=O)=O)ccc2OC(C)C)n1 for me?
stdout: 7.16

stdin: Can you look up the measured pKd of Cc1nc(N2CCCC2)sc1-c1csc(Nc2cc(C(N)=O)ccc2OC(C)C)n1 for me?
stdout: 6.85

stdin: Can you look up the measured pKd of COc1ccc(C(N)=O)cc1Nc1nc(-c2cnc(N)s2)cs1 for me?
stdout: 6.00

stdin: Can you look up the measured pKd of CCOC(=O)c1ccc(OCC)c(Nc2nc(-c3sc(C)nc3C)cs2)c1 for me?
stdout: 4.82
